- Tested on: LXRa homodimer (NR concentration 270 nM)
- procedure.details: PBM binding z-score (relative to random genomic background probes); higher = stronger binding; sequences stand for … in GC…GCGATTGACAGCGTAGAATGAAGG
Examples of sequences with documented PBM binding z-score follow.

CGAACTAGGGCATCCAGGACAGTGAATACATTGA :: -0.3

Shift focus to the following entry.
Ask: Returns the measured PBM binding z-score for the input sequence. Input: `TCATATAGGTAAAAGGAGAAAGTCGGTGTGGTAA`
Result: -0.0649

* * *

Examples of sequences with documented PBM binding z-score follow.
- Test system: PPARg:RXRa DBDmut IVT, anti-RXR (DBD mutation: RXRa K156A/R161A, NR concentration 270 nM, RXRa partner concentration 90 nM)
- procedure.details: PBM binding z-score (relative to random genomic background probes); higher = stronger binding; sequences stand for … in GC…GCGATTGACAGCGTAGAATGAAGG
Would you mind answering with just the numeric figure?

Consider the reported PBM binding z-score for these sequences:
GCGACTGGGGCAATGCAGGTTACCATAAGGTTGG :: 4.37
CCTGCTAGGTCATGATCAGCTAATCTACAGTATG :: 4.52

Ask: Returns the measured PBM binding z-score for the input sequence. Input: `CAAACTAGGTAAAAGGTCAAAGTCGAGCCAACCA`
Result: 7.05

Ask: Repeat with `CCTATTAGTTGACCATCAGGGCAACCGAAGCTCG`
Result: 0.536

* * *

Examples of sequences with documented PBM binding z-score follow.
- Tested on: RARg:RXRa (NR concentration 270 nM, RXRa partner concentration 90 nM)
- procedure.details: PBM binding z-score (relative to random genomic background probes); higher = stronger binding; sequences stand for … in GC…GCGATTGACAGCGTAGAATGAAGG
Would you mind answering with just the numeric figure?

Consider the reported PBM binding z-score for these sequences:
AGAATGAGGTTATTAAGCTCAGGGAATTGCGGTC :: 0.737
TCTTGTAGATCAAGGAGGTTAAGAAAGCCTGAGT :: 0.234

Ask: Returns the measured PBM binding z-score for the input sequence. Input: `TAGCCTAGGTCATTCAGGGGCCAGTAGAGAAAGC`
Result: 6.31

* * *

- Tested on: THRa homodimer (NR concentration 90 nM)
- procedure.details: PBM binding z-score (relative to random genomic background probes); higher = stronger binding; sequences stand for … in GC…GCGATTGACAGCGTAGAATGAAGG
Label scheme, based on PBM binding z-score: low group: < 0.7; middle group: ≥ 0.7 and < 2; high group: ≥ 2

Consider the worked cases shown below.
GCATGTAGGTAATACAAGGTGAAAGTCCGATTGT :: middle group
ATCGAAAGCTCGTGAGGTGAGTATACAGAAAGGC :: middle group
CCGACTGGGCCAAAAAGGTCATTGATGCCGATAA :: low group
TTACCAAGGTGAGTTGAGGTCGTTGATCCAACTC :: high group
TGTCAAAGTTCAGAGGTAACGTAAGTATCCACAC :: low group
TCTGCTAGGTCAACGATGGGCAGCTAATCTGCTA :: low group
CAAACTAGGTTACAGAGGTCAAAGTCCGTGCGTA :: high group
ATATGGAGGTTATCGGGTCATTCAGTTTGCGCAT :: high group
ATATGTAGGTTAGCTGGGGTCATTCAGACTAGGC :: high group
CGTCCAAGGTCAATGCTAGGTCAGTGAAAGCATT :: high group

Ask: Class? Entry: `GTTGCTAGGTCAACTGATGGTCAGCTAAAGCTCG`
Result: middle group

Ask: Repeat with `TTACCAAGGTGAAGGTCGTTGAGCCCTCTGTAGA`
Result: low group

* * *

- System: PPARg:RXRa (NR concentration 180 nM, RXRa partner concentration 90 nM)
- procedure.details: PBM binding z-score (relative to random genomic background probes); higher = stronger binding; sequences stand for … in GC…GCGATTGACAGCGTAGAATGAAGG
measured.metric: PBM binding z-score

Consider the reported PBM binding z-score for these sequences:
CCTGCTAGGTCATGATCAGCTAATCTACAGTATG :: 2.28
GCTGACGGGTCAAAGGTTATAGCATGAATAGAAT :: 9.41
ATATGTAGATTACATCCGGGTCATTCAGGCTATG :: 1.42
CAAACTAGGTCAAGGTCAAAGACGGTTTGTGCCA :: 9.9

Shift focus to the following entry.
Ask: Item `TAGCCTAGGTCAGATCGCGCCAGTATACGCTATA` with PPARg:RXRa (NR concentration 180 nM, RXRa partner concentration 90 nM) - PBM binding z-score?
Result: 0.856

* * *

- Tested on: PXR homodimer (NR concentration 270 nM)
- procedure.details: PBM binding z-score (relative to random genomic background probes); higher = stronger binding; sequences stand for … in GC…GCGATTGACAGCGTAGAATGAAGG
measured.metric: PBM binding z-score
Would you mind answering with just the numeric figure?

Ask: Returns the measured PBM binding z-score for the input sequence. Input: `ATCTCTAGGCAAAAGTTCAGTGAATCCCGAGGAT`
Result: 1.04

Ask: Repeat with `CGTCCAAGGTTAAAGGTCAGTGAAGAGATGACGG`
Result: 0.975

Ask: Repeat with `GAGACTGGGGCAAAGCAGGTTACCATAAGGTTGG`
Result: 0.197

* * *

- System: PPARg:RXRa 270nM:90nM, anti-RXR (NR concentration 270 nM, RXRa partner concentration 90 nM)
- procedure.details: PBM binding z-score (relative to random genomic background probes); higher = stronger binding; sequences stand for … in GC…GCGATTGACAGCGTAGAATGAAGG
Label scheme, based on PBM binding z-score: low (below 0.8), moderate (0.8 to below 3), high (3 or more)

TGAATGGGGTTAAAGATCAGGGAACGTGGCGTCG :: high

Ask: Class? Entry: `CAAACAAGGTCAAGAGGTCAAAGTCCGCTTCCCG`
Result: high

Ask: Repeat with `TCGAGTAGGTTAGGGGTATTCAGAATGGCGTCGA`
Result: high

* * *

- System: VDR homodimer (NR concentration 270 nM)
- procedure.details: PBM binding z-score (relative to random genomic background probes); higher = stronger binding; sequences stand for … in GC…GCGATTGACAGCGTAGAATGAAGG
Examples of sequences with documented PBM binding z-score follow.
Would you mind answering with just the numeric figure?

Consider the reported PBM binding z-score for these sequences:
CAAACTGGGTCAAGAGGTCAAAGTCCGCTTCCCG :: 4.76
TGTCAAAGTTCAAAGGTAACGTACGTATCCACAC :: 4.29

Ask: Item `CGTCCAAGTTCAATGCTAGGTCAGTGAAAGCATT` with VDR homodimer (NR concentration 270 nM) - PBM binding z-score?
Result: 4.43

Ask: Repeat with `TCTTGTAGATCAAATGTTAAGAAAGCCGAAGCCT`
Result: -0.522

Ask: Repeat with `CCGAGTAGGTTATGGTGCATTCAGGCAACGGTGA`
Result: 0.619

Ask: Repeat with `GCGACTGTGGCATCAGCAGGTTACCATAACTTAA`
Result: -0.501

Ask: Repeat with `GCTGCTAGGTCCGGTTGGTCAGCTAACGGGTACG`
Result: -0.324

* * *

- Tested on: LXRb homodimer (NR concentration 270 nM)
- procedure.details: PBM binding z-score (relative to random genomic background probes); higher = stronger binding; sequences stand for … in GC…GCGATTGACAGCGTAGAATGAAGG
Threshold rule: PBM binding z-score greater than or equal to 0.4 is 1; below that, -1.

Consider the worked cases shown below.
CTACCAAGGTGAACAAGGTCCTTGATTACTATTC :: -1
AGTCAAAGTTCAGGACGATGTAACGTAAAGCACG :: -1
CAAACTAGGTCAAGAGGTAAAAGTCCGCTTCCCG :: -1
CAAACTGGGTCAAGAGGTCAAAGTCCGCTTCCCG :: 1
TAGCCTAGGTCATTCATGGGCCAGTATAGAAAGC :: 1

Ask: Check the entry `GTTCGGAGGACAAGGTCAGAGCTTTGTCCGTAGA` : does PBM binding z-score equal or exceed 0.4?
Result: -1

* * *

Examples of sequences with documented PBM binding z-score follow.
- System: RARb homodimer (NR concentration 270 nM)
- procedure.details: PBM binding z-score (relative to random genomic background probes); higher = stronger binding; sequences stand for … in GC…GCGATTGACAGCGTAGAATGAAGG
Would you mind answering with just the numeric figure?

Consider the reported PBM binding z-score for these sequences:
CAAACTAGGTCGCCGGAAGGTCAAAGTCCGCATG :: 4.43
AGAGCGAGGGCACGCTGAGTTGATAGCAGAGTAG :: 1
GCGACTGGGACAAAGCAGGTTACCATAAGGTTGG :: 0.587
CGAACTAGGGCATTGACAGGACAGTGAATAGTAA :: 0.812
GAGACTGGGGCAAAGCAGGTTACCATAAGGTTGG :: 1.54

Shift focus to the following entry.
Ask: Returns the measured PBM binding z-score for the input sequence. Input: `AGTCAAAGTTCGTCTAGGTAACGTAAGATATGCT`
Result: 1.35
